target_under_test: T1, human Claudin 18.2 (CLDN18.2) (human, UniProt P56856-2 1-261)
T1 construct: whole, on cells; recombinantly expressed on CHO, HEK293, NCI-N87, NUGC4 or PANC-1 cells; also called CHO-CLDN18.2
assay_name: FACS on CHO-CLDN18.2 cells
The binders listed here are annotated with their pEC50.
FYI, pEC50 means -log10 of a concentration in mol per litre.

Inquiry: Suppose we examine the binder 413H9F8-H1L4 (antibody, V domains shown, humanized IgG; constant regions not specified) VH: EVQLVESGGGLVQPGGSLRLSCAASGFTFSSFGMHWVRQAPGKGLEWVSYISSGSSPIYYVDKLKGRFTISRDNAKNSLYLQMNSLRAEDTAVYYCARAGYAVRNALDYWGQGTLVTVSS VL: DIVMTQSPDSLAVSLGERATISCKSSQSLLNVGNQKNYLAWYQQKPGQPPKLLIYGASTRESGVPDRFIGSGSGTDFTLTISSLQAEDVAVYFCQNDLFYPLTFGAGTKVEIK ; what pEC50 value has been reported?
Reply text: 8.48

Inquiry: Moving on to the next binder: 413H9F8-H2L2 (antibody, V domains shown, humanized IgG; constant regions not specified) VH: EVQLVESGGGLVQPGGSLRLSCAASGFTFSSFGMHWVRQAPGKGLEWVAYISSGSSPIYYVDKLKGRFTISRDNAKNSLYLQMNSLRAEDTAVYYCARAGYAVRNALDYWGQGTLVTVSS VL: DIVMTQSPDSLAVSLGERATINCKSSQSLLNVGNQKNYLAWYQQKPGQPPKLLIYGASTRESGVPDRFSGSGSGTDFTLTISSLQAEDVAVYFCQNDLFYPLTFGGGTKVEIK
Reply text: 8.71

Continue with the binder presented below.
Inquiry: Form field: reported pEC50 of 413H9F8-H2L1 (antibody, V domains shown, humanized IgG; constant regions not specified) VH: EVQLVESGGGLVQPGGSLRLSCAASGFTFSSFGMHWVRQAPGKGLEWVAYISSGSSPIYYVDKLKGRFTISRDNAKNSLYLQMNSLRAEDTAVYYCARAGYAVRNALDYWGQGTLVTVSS VL: DIVMTQSPDSLAVSLGERATINCKSSQSLLNVGNQKNYLAWYQQKPGQPPKLLIYGASTRESGVPDRFSGSGSGTDFTLTISSLQAEDVAVYYCQNDLFYPLTFGGGTKVEIK
Reply text: 8.61
